- Test system: Hsp90 in HEPG2 lysate
- COND: HEPG2 lysate, log concentration 3.47712 (3000 nM)
MEASURED_QUANTITY: FP signal, Fxn Control

1) Cc1ccc(CON=C2C=CC=CC3OC3CC(C)OC(=O)c3c(O)cc(O)c(Cl)c3C2)cc1 (mixture of isomers)	0.4009
2) CC1(C)CC(=O)c2c(C(F)(F)F)nn(-c3ccc(C(N)=O)c(N[C@H]4CC[C@H](O)CC4)c3)c2C1 [SNX-2112, reference compound]	0.1754
3) CCON=C1/C=C/C=C\[C@H]2O[C@H]2C[C@@H](C)OC(=O)c2c(O)cc(O)c(Cl)c2C1	0.2028
4) COc1ccccc1CON=C1C=CC=CC2OC2CC(C)OC(=O)c2c(O)cc(O)c(Cl)c2C1 (mixture of isomers)	0.2105
5) CCNC(=O)c1noc(-c2cc(C(C)C)c(O)cc2O)c1-c1ccc(CN2CCOCC2)cc1 [AUY922, reference compound]	0.1422
6) CC1CC2OC2C=CC=CC(=NOCc2cccc(F)c2)Cc2c(Cl)c(O)cc(O)c2C(=O)O1 (mixture of isomers)	0.1923
7) COc1ccc(CON=C2C=CC=CC3OC3CC(C)OC(=O)c3c(O)cc(O)c(Cl)c3C2)cc1 (mixture of isomers)	0.5048
8) COc1ccc(CON=C2C=CC=CC3OC3CC(C)OC(=O)c3c(O)cc(O)cc3C2)cc1 (stereo not drawn)	0.5286
9) CC1CC2OC2C=CC=CC(=NOCCN2CCCC2=O)Cc2c(Cl)c(O)cc(O)c2C(=O)O1 (stereo not drawn) [KF58333, reference compound]	0.2475
10) CC1(C)CC(=O)c2c(C(F)(F)F)nn(-c3ccc(C(N)=O)c(N[C@H]4CC[C@H](OC(=O)CN)CC4)c3)c2C1	0.217
11) C[C@@H]1C[C@@H]2O[C@@H]2/C=C\C=C\C(=NOCc2ccccc2Cl)Cc2c(Cl)c(O)cc(O)c2C(=O)O1	0.2178
12) CC1CC2OC2C=CC=CC(=NOCc2ccccc2)Cc2c(Cl)c(O)cc(O)c2C(=O)O1 (mixture of isomers)	0.1893

These measurements were taken from paper PMC6345968.
